# procedure_details: Oral bioavailability in Sprague-Dawley rat at 30 mg/kg via gavage by HPLC-MS/MS analysis
# Type: ADME, organism-based
# stated_conditions: in vivo
metric: bioavailability (%)
Report the figure in % without appending any unit label.

The reported value for CC(C)c1cc(-c2ccc3c(c2)[C@H](N)CO3)cc([C@H](O)Cn2ccc3cccc(C(=O)O)c32)c1 in terms of bioavailability is 19

----------
# assayed_system: Voltage-gated inwardly rectifying potassium channel KCNH2 (Homo sapiens)
# Sequence (Q12809 whole entry): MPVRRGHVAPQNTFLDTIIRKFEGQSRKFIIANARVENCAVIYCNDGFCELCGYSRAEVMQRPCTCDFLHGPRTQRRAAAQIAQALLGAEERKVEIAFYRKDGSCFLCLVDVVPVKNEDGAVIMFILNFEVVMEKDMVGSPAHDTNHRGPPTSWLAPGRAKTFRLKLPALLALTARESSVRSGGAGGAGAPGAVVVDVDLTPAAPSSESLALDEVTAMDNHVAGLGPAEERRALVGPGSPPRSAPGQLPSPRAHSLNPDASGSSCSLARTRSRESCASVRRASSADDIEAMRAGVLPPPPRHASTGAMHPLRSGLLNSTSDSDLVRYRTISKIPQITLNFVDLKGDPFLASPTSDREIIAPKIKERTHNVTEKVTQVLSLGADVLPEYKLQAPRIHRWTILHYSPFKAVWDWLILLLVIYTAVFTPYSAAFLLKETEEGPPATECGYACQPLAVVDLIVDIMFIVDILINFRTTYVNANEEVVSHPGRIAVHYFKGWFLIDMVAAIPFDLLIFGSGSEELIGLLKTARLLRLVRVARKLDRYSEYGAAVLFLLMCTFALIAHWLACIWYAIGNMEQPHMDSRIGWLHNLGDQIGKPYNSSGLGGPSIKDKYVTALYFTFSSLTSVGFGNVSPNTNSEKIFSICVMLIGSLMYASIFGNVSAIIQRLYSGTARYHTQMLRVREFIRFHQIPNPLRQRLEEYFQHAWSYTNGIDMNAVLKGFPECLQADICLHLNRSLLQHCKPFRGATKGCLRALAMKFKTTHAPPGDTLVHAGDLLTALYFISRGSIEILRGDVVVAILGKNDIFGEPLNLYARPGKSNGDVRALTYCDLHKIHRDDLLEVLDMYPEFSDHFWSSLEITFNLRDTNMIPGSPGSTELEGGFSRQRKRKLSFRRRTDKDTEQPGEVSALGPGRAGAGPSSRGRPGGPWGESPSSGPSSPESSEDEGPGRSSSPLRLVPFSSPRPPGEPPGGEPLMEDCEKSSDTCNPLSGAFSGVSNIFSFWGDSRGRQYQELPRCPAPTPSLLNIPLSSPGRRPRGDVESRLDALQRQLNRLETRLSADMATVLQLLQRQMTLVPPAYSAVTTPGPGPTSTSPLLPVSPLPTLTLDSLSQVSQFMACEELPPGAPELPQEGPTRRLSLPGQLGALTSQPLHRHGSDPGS
pIC50: −log10 of the molar value.
metric: pIC50

The observed pIC50 for NCc1cccc(-c2cccc(COc3ccccc3CC(=O)O)c2)c1 when tested with Voltage-gated inwardly rectifying potassium channel KCNH2 (Homo sapiens) stands at < 4.52

----------
# procedure_details: Tmax in C57BL/6 mouse at 100 mg/kg, po by LC-MS/MS analysis
# Assay type: ADME, organism-based
# stated_conditions: in vivo
metric: Tmax (h)
Just the number please, in h, no unit attached.

// Tmax lookup, compound = CC(C)c1cc(-c2ccc3c(c2)[C@H](N)CO3)cc([C@H](O)Cn2ccc3cccc(C(=O)O)c32)c1 , result: 4

----------
Give measured pIC50 for each item. Keep answers brief.
Answer as the number alone; pIC50 is minus log10 of concentration in mol/L.

Considering CC(C)(C(N)=O)c1cc(COc2ccccc2CC(=O)O)cc(-c2ccc3c(c2)[C@H](N)CO3)c1 , its pIC50 with Complement factor D (Homo sapiens) was recorded as 6.49

Hey, Complement factor D (Homo sapiens) data for CC(C)c1cc(COc2ccccc2CC(=O)O)cc(-c2ccc3c(c2)[C@H](N)CO3)c1 : pIC50 came out at 7.40

Recorded pIC50 for CC1(C)COc2c(COc3ccccc3CC(=O)O)cc(-c3ccc4c(c3)[C@H](N)CCO4)cc21 on Complement factor D (Homo sapiens) was 4.82

Query CC(C)c1cc(CCN2CCc3cccc(C(=O)O)c32)cc(-c2ccc3c(c2)[C@H](N)CO3)c1 on Complement factor D (Homo sapiens); pIC50 returned: 5.36

Response field pIC50 (Complement factor D (Homo sapiens)) for item CC(C)(C#N)c1cc(COc2ccccc2CC(=O)O)cc(-c2ccc3c(c2)[C@H](N)CO3)c1 : 7.40

Complement factor D (Homo sapiens) assay, compound COc1cccc(C(=O)O)c1OCC(O)c1cc(-c2ccc3c(c2)[C@H](N)CO3)cc(C(C)C)c1 (mixture of isomers) , recorded pIC50 = 4.57

// returns pIC50 for CC(C)c1cc(CCOc2ccccc2C(=O)O)cc(-c2ccc3c(c2)[C@H](N)CO3)c1 with Complement factor D (Homo sapiens); value = 5.88

Record NC1COc2ccc(-c3cccc(COc4ccccc4CC(=O)O)c3)cc21 (racemic) ; system Complement factor D (Homo sapiens); pIC50 = 6.47

Reading of pIC50 for CC1(C)COc2c(COc3ccccc3CC(=O)O)cc(-c3ccc4c(c3)[C@H](N)CO4)cc21 with Complement factor D (Homo sapiens): 7.30

----------
# procedure_details: physchem
# stated_conditions: aqueous buffer, pH 6.8
Would you kindly list solubility thermodynamic for each of these molecules?

The recorded solubility thermodynamic for entry CC(C)(C#N)c1cc(COc2ccccc2CC(=O)O)cc(-c2ccc3c(c2)[C@H](N)CO3)c1 equals 60 µM

Memo: CC(C)(O)c1cc(COc2ccccc2CC(=O)O)cc(-c2ccc3c(c2)[C@H](N)CO3)c1 , reported solubility thermodynamic: > 1000 µM

For CC1(C)COc2c(COc3ccccc3CC(=O)O)cc(-c3ccc4c(c3)[C@H](N)CO4)cc21 the molecule record lists solubility thermodynamic as < 4 µM

Lab book: solubility thermodynamic of CC(C)(C(N)=O)c1cc(COc2ccccc2CC(=O)O)cc(-c2ccc3c(c2)[C@H](N)CO3)c1 noted as 780 µM
